Sourced from ChEMBL document CHEMBL4138184

Kindly supply the reported Efficacy values for the records listed here.
- Tested on: BT-549
- measurement.description: Antiproliferative activity against human BT549 cells at 1 nM to 100 uM after 24 hrs by MTT assay relative to control
- Type: functional
- recorded.conditions: at 0.001 to 100 µM
Give bare numbers, in %.

Recorded Efficacy, per entry:
O=c1ccc2ccc(O)cc2o1 [UMBELLIFERONE]; 91
CC(C)=CCC/C(C)=C/CC/C(C)=C/COc1ccc2ccc(=O)oc2c1 [UMBELLIPRENIN]; 85
O=c1ccc2ccc(O/C=C/c3ccccc3)cc2o1; 86
COc1ccc2[nH]cc(CCNC(C)=O)c2c1 [MELATONIN]; 91

For the compound COc1cc(/C=C/C(=O)O)ccc1OCC=C(C)C [BOROPINIC ACID] , report Efficacy.
97

---

- System: BT-549
- measurement.description: Antiproliferative activity against human BT549 cells after 24 hrs by MTT assay
- Format: functional, cell-based
- recorded.conditions: BT-549, 24 h
property.name: pIC50
One number for each entry, as −log10 of the molar value.

Recorded pIC50, per entry:
COc1cc(/C=C/C(=O)O)ccc1OCC=C(C)C [BOROPINIC ACID]; 4.82
CC(C)=CCOc1ccc2ccc(=O)oc2c1 [7-PRENYLOXYCOUMARIN]; 4.43

Okay, now this compound:
Find the measured pIC50 of COc1cc(/C=C/C(=O)O)ccc1O [FERULATE] with BT-549 as test system.
5.92
